EC50 values, listed per item
# Tested system: T1, human SLITRK6 on cells (human, UniProt Q9H5Y7 27-841)
# T1 construct: whole, on cells
# Method: flow cytometry on SW780 cells
Please respond with the number in nM and leave the unit unwritten.

1. hu1H2-13-LD038 (8) (antibody, V domains shown, drug-linker LD038 on cysteines freed by TCEP reduction, DAR 8.0; positions not given, also called hu1H2-13 ADC) VH: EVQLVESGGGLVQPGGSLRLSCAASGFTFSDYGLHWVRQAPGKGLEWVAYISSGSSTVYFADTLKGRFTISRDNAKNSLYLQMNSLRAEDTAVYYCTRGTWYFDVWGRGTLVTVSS VL: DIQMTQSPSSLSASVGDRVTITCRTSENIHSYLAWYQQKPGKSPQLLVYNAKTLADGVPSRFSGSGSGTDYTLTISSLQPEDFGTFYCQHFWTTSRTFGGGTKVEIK = 0.61

Next:
Qu. Need EC50, item hu1H2-03-LD038 (8) (antibody, V domains shown, drug-linker LD038 on cysteines freed by TCEP reduction, DAR 8.0; positions not given, also called hu1H2-03 ADC) VH: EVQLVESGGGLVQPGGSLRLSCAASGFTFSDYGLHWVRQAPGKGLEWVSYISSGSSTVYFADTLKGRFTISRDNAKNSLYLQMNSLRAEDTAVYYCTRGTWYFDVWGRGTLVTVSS VL: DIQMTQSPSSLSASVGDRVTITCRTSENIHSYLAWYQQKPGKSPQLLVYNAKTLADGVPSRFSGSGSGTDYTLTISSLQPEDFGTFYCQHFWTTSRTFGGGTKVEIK
Ans. 0.44
